- System: batrachotoxin (BTX) binding site (binding site 2) of the sodium channel
- Assay details: Bond test on the sodium channel, binding site 2 (BTX bond), [3H]-batrachotoxinin A20 α-benzoate displacement
- Condition label: rat cerebrocortex synaptosomes
Measured metric: BTX bond, 10 μM, % inhibition (%)

Molecule	Value units	Experimental result
O=C(NCc1ccccc1)C1=NOC2(CCN(C(=O)c3ccc(Br)cc3)CC2)C1	%	58
CN(C)S(=O)(=O)N1CCC2(CC1)CC(C(=O)N1CCN(Cc3ccc4ccccc4c3)CC1)=NO2	%	67
O=C(C1=NOC2(CCN(S(=O)(=O)Cc3ccccc3)CC2)C1)N1CCN(Cc2ccc3ccccc3c2)CC1	%	49
CCOP(=O)(Cc1ccc(NC(=O)C2=NOC3(CCN(S(=O)(=O)Cc4ccccc4)CC3)C2)cc1)OCC	%	55
CC(Cc1ccc(Cl)cc1)NC(=O)C1=NOC2(CCN(S(=O)(=O)c3ccc(Cl)s3)CC2)C1 (stereo not drawn)	%	69
O=C(NC1CCCC1OCc1ccccc1)C1=NOC2(CCN(S(=O)(=O)Cc3ccccc3)CC2)C1 (stereo not drawn)	%	69
O=C(NCC1COc2ccccc2O1)C1=NOC2(CCN(S(=O)(=O)c3cccs3)CC2)C1 (stereo not drawn)	%	63
O=C(C1=NOC2(CCN(S(=O)(=O)c3cccc(C(F)(F)F)c3)CC2)C1)N1CCC(Cc2ccccc2)CC1	%	48
CN(C)S(=O)(=O)N1CCC2(CC1)CC(C(=O)NC1CCCC1OCc1ccccc1)=NO2 (stereo not drawn)	%	40

###

- Test system: batrachotoxin (BTX) binding site (binding site 2) of the sodium channel
- Assay details: Bond test on the sodium channel, binding site 2 (BTX bond), [3H]-batrachotoxinin A20 α-benzoate displacement
- Condition label: rat cerebrocortex synaptosomes
Measured metric: BTX bond, 10 μM, % inhibition (%)

Molecule	System	Value units	Experimental result
O=C(NC1CCCC1OCc1ccccc1)C1=NOC2(CCN(S(=O)(=O)c3cccs3)CC2)C1 (stereo not drawn) [Example 47]	batrachotoxin (BTX) binding site (binding site 2) of the sodium channel	%	71
O=C(NCc1cccs1)C1=NOC2(CCN(C(=O)CCCOc3ccccc3)CC2)C1 [Example 183]	batrachotoxin (BTX) binding site (binding site 2) of the sodium channel	%	68
O=C(C1=NOC2(CCN(S(=O)(=O)c3ccc(Cl)s3)CC2)C1)N1CCN(c2ccc(F)cc2)CC1 [Example 91]	batrachotoxin (BTX) binding site (binding site 2) of the sodium channel	%	72
Cc1ccc(F)c(C(=O)N2CCC3(CC2)CC(C(=O)NCc2cccs2)=NO3)c1F [Example 170]	batrachotoxin (BTX) binding site (binding site 2) of the sodium channel	%	59
O=C(C1=NOC2(CCN(S(=O)(=O)c3cccc(C(F)(F)F)c3)CC2)C1)N1CCN(c2cc(C(F)(F)F)ccn2)CC1 [Example 119]	batrachotoxin (BTX) binding site (binding site 2) of the sodium channel	%	72
O=C(NCc1cccs1)C1=NOC2(CCN(S(=O)(=O)c3ccccc3Cl)CC2)C1 [Example 156]	batrachotoxin (BTX) binding site (binding site 2) of the sodium channel	%	70
